Test system: HTT
Assay: HiBiT protein abundance assay, HTT (K562 HiBiT knock-in)
Format: cell-based, human
Details: HiBiT knock-in K562 cells, 24 hours, top dose 10 μM
pIC50: −log10 of the molar value.
Please go through the items and note down their pIC50.

// known answers, use as guide
COMPOUND	pIC50
Cc1c(O)c(-c2ccc3nc(N4CC[C@@H](NC(C)(C)C)C4)ccc3n2)cc2cn(C)nc12	> 7.00
Cn1cc2cc(-c3ccc4nc(N5CC6(CNC6)C5)ccc4n3)c(O)cc2n1	> 7.00
Cc1nc2c(F)c(O)c(-c3ccc4nc(N5CC[C@@H](NCC6CC6)C5)ccc4n3)cc2o1 (single isomer, unassigned)	> 7.00
CNC1CCN(c2ccc3nc(-c4cc(F)c5nc(C)cn5c4)ncc3n2)C1 (stereo not drawn)	6.00 to 7.00

Look at each compound and report its pIC50.
1. Cc1cn2cc(-c3ccc4nc(N5CCC(NC(C)(C)C)C5)ccc4n3)cc(C)c2n1 (stereo not drawn)
2. Cc1nc2cc(O)c(-c3ccc4nc(N5CCNCC5)ccc4n3)cc2o1
3. CN[C@H]1CCN(c2ccc3nc(-c4cc(F)c5nc(C)cn5c4)ncc3n2)C1
4. CNC(=O)c1nc(-c2cc3cn(C)nc3c(C)c2O)nc2ccc(N3CC[C@H](NC)C3)cc12
5. Cc1nc(-c2ccc3nc(N4CCC(NC(C)(C)C)C4)ccc3n2)cc2cn(C)nc12 (stereo not drawn)
6. CCNC(=O)c1nc(-c2cc3cn(C)nc3c(C)c2O)nc2ccc(N3C[C@@H](C)N[C@@H](C)C3)cc12
7. Cc1nc2cc(O)c(-c3ccc4nc(N5CC[C@H](NC6CC6)C5)ccc4n3)cc2o1

["> 7.00", "6.00 to 7.00", "6.00 to 7.00", "> 7.00", "5.00 to 6.00", "> 7.00", "> 7.00"]

For each of the compounds below, state pIC50.
1. Cn1cc2cc(-c3ccc4nc(N5CC[C@@H](N[C@H]6C[C@@H](F)C6)C5)ccc4n3)c(O)cc2n1 (single isomer, unassigned)
2. CNC(=O)c1nc(-c2cc3cn(C)nc3c(C)c2O)nc2ccc(N3CCC(N(C)C)CC3)cc12

["> 7.00", "6.00 to 7.00"]

For each entry beneath this line, provide reported pIC50.
1. Cc1nc2c(C)c(O)c(-c3ccc4nc(N5CC[C@@H](NC6CCC6)C5)ccc4n3)cc2o1
2. Cc1c(O)c(-c2ccc3nc(C4CCNCC4)ccc3n2)cc2cn(C)nc12
3. CNC(=O)c1nc(-c2cc3cn(C)nc3cc2O)nc2ccc(N3CCC(N(C)C)CC3)cc12
4. CCc1nc2cc(O)c(-c3ccc4nc(N5CCC(NC(C)(C)C)C5)ccc4n3)cc2o1 (stereo not drawn)
5. Cc1nc2c(F)c(O)c(-c3ccc4nc(N5CC[C@@H](NC6(CF)CC6)C5)ccc4n3)cc2o1 (single isomer, unassigned)
6. CCNC1CCN(c2ccc3nc(-c4cc5cn(C)nc5cc4O)ccc3n2)CC1
7. CC(C)(C)NC1CCN(c2ccc3nc(-c4cc5oc(C6CC6)nc5cc4O)ccc3n2)C1 (stereo not drawn)
8. Cn1cc2cc(-c3nc(C#N)c4cc(N5CCNCC5)ccc4n3)c(O)c(F)c2n1

["> 7.00", "> 7.00", "5.00 to 6.00", "5.00 to 6.00", "> 7.00", "5.00 to 6.00", "6.00 to 7.00", "6.00 to 7.00"]

Dear colleague, could you please provide pIC50 for the compounds listed below?
1. C[C@@H]1CC(c2ccc3nc(-c4cc5cn(C)nc5cc4O)ccc3n2)C[C@H](C)N1 (stereo partly drawn)
2. Cc1nc2c(C)c(O)c(-c3ccc4nc(N5CC[C@@H](NC(C)(C)C)C5)ncc4n3)cc2o1
3. Cc1cn2cc(-c3ccc4cc(N5C[C@H](C)N[C@@H](C)C5)cc(F)c4n3)cc(F)c2n1 (single isomer, unassigned) [Compound 705, 2,2,2-trifluoroacetate]
4. Cc1c(O)c(-c2ncc3cc(N4C[C@@H](C)N[C@@H](C)C4)ccc3n2)cc2cn(C)nc12

1. 6.00 to 7.00
2. > 7.00
3. 6.00 to 7.00
4. 6.00 to 7.00

Need pIC50 for each of these compounds.
1. C[C@H]1CN(c2ccc3nc(-c4cc5cn(C)nc5cc4O)ncc3c2)C[C@H](C)N1
2. Cn1cc2cc(-c3ccc4nc(N5CC[C@H](N[C@H]6C[C@H](F)C6)C5)ccc4n3)c(O)cc2n1

["6.00 to 7.00", "6.00 to 7.00"]

Dear colleague, could you send me pIC50 for each of the items below? Thanks.
1. Cn1cc2cc(-c3ccc4nc(N5CC[C@H](NCC6CC6)C5)ccc4n3)c(O)cc2n1
2. Cn1cc2nc(-c3ccc4nc(N5CCC(NC(C)(C)C)C5)ccc4n3)c(O)cc2n1 (stereo not drawn)
3. CN(C)C1CCN(c2ccc3nc(-c4cc5cn(C)nc5cc4O)ccc3n2)CC1

> 7.00
> 7.00
5.00 to 6.00
